Below: molecules with pKi recorded for UniProt P28223 in separate published works.
Remember, pKi is on a log scale: it is -log10 of the molar concentration.

INSERT INTO results (molecule, outcome_measure, number) VALUES
  ('COc1ccc(-c2ccccc2)c(CNC(=O)NCCCN2CCN(c3ccccc3OC)CC2)c1', 'pKi', 6.92),
  ('O=C1NCc2ccc(OCCCCN3CCN(c4cccc5cccc(F)c45)CC3)c(Cl)c21', 'pKi', 8.95),
  ('COc1ccc(N2Cc3cccc(Cl)c3C2=O)cc1OCCN1CCCCC1', 'pKi', 6.00),
  ('O=C(NCC(O)CCN1CCN(c2cccc(Cl)c2Cl)CC1)c1ccc(-c2ccccn2)cc1 (stereo unspecified)', 'pKi', 7.81),
  ('CN1CCN(c2nc(N)nc(CS(=O)(=O)c3ccccc3Cl)n2)CC1', 'pKi', 4.94),
  ('CC1CCCN(CCc2cccc3[nH]cc(S(=O)(=O)c4ccccc4)c23)C1 (stereo unspecified)', 'pKi', 7.34);

Value (pKi, UniProt P28223) for record CC(=O)c1c(OCCCCN2CCN(c3cc(C)cc(C)c3)CC2)ccc2c(C)cc(=O)oc12 = 7.24

Readout pKi for OCCN1CCN(c2nc(Nc3ccc(Br)cc3)c3ccccc3n2)CC1 , test system UniProt P28223, was 7.04

pKi of COc1ccc(N2Cc3sc4ccccc4c3C2=O)cc1OCCN1CCCCC1 , assay on UniProt P28223, is 6.40

Tested on UniProt P28223, the item O=Cc1cnn2ccc(OCCCCN3CCN(c4cccc(Cl)c4Cl)CC3)cc12 showed pKi equal to 6.62

Param item: CC1CC(=O)Nc2c(CCN3CCN(c4nsc5ccccc45)CC3)cc(F)cc21 (stereo unspecified) ; param system: UniProt P28223; output pKi: 9.77

----------
Published Ki for 5-hydroxytryptamine receptor 2A (Homo sapiens), assembled from different documents, is shown next.
Supply the numeric figure in µM, leaving out any unit text.

These solved cases illustrate the format of a correct answer.
INSERT INTO results (cpd_smiles, scale_unit, number) VALUES
  ('CC(C)(C)c1nc(N2CCN(CCCCNC(=O)c3cc4ccccc4s3)CC2)cc(C(F)(F)F)n1', 'µM', 7.1),
  ('O=c1ccc2cnc(OCCCCN3CCN(c4cccc(Cl)c4Cl)CC3)nc2[nH]1', 'µM', 0.0032),
  ('Cc1c2n(c3ccccc13)CCNCC2', 'µM', 0.012),
  ('O=Cc1cnn2ccc(OCCCCN3CCN(c4ccc(O)c5c4OCCO5)CC3)cc12', 'µM', 1),
  ('COc1ccc(N2CC=C(c3ccc(Cl)c(Cl)c3)C2=O)cc1OCCN1CCCC1', 'µM', 0.631);

Just so you know, measured Ki for O=C(NCCCCN1CCN(c2ccc(F)cc2)CC1)c1cc2ccccc2cn1 came out at 0.008

Record O=C1NCc2ccc(OCCCN3CCN(c4cccc5cccc(F)c45)CC3)c(Cl)c21 . Reported Ki: 0.00355

----------
Target or system UniProt P28223; metric Ki; compiled from varied reports.
Report the figure in nM without appending any unit label.

Use these answered entries as a reference point.
INSERT INTO measurements (compound, scale_unit, number) VALUES
  ('Fc1ccc2c(C3CCN(CCCOc4ccc(CN5CCOCC5)cc4Cl)CC3)noc2c1', 'nM', 5.7),
  ('O=C(CN1CCC(S(=O)(=O)c2ccccc2)CC1)c1ccc(F)cc1F', 'nM', 2.4),
  ('COc1ccc(S(=O)(=O)n2cc(C)c3cc(Cl)cnc32)cc1NC1CCN(C)CC1', 'nM', 2370),
  ('O=C(NC1CCc2ccc(CCN3CCN(c4nsc5ccccc45)CC3)cc21)c1ccccc1 (stereo unspecified)', 'nM', 4.75),
  ('Nc1cc(F)ccc1C(=O)CCCN1CC[C@H]2[C@@H](C1)c1cccc3c1N2CCC3', 'nM', 0.5);

Entry CCCCCCOc1cc2c3c(c1OC)-c1cc(OC)c(OC)cc1C[C@@H]3N(C)CC2 : Ki on UniProt P28223 = 213

Entry C1=C(c2c[nH]c3cccc(-c4ccccc4)c23)CNCC1 , tested on UniProt P28223, has a reported Ki of 14

----------
// read-out Ki, gathered for 5-hydroxytryptamine receptor 2A (Homo sapiens) from published studies
Write the value in nM as a bare number.

INSERT INTO assay_data (molecule, number) VALUES
  ('O=c1ccc(-n2ccnc2)nn1CCCCN1CCN(c2cccc(C(F)(F)F)c2)CC1', 166),
  ('O=C1c2cccc3cccc(c23)N1CCCCCCN1CCN(c2ccc(Cl)c(Cl)c2)CC1', 493);

Ki on 5-hydroxytryptamine receptor 2A (Homo sapiens) for c1ccc2c(c1)cc1n2CCNCC1 is 18

Form field Ki for item O=C(c1cc2n(n1)CCCC2)N1CCN(CCc2ccc(F)cc2F)CC1 on 5-hydroxytryptamine receptor 2A (Homo sapiens): 2.6

Value (Ki, 5-hydroxytryptamine receptor 2A (Homo sapiens)) for record Cc1cc(OCc2nc(N)nc(N3CCN(C)CC3)n2)ccc1Cl = 197

With 5-hydroxytryptamine receptor 2A (Homo sapiens) as the test system, Fc1ccc(OCCCN2CCC(c3ccc(Cl)cc3)CC2)cc1 showed Ki of 121

Here COc1cccc2c1C(CN)c1ccccc1C2 (stereo unspecified) was tested on 5-hydroxytryptamine receptor 2A (Homo sapiens), and its Ki came to 1160

Recorded Ki for CSc1cc2c(cc1Cl)N(C(=O)Nc1cccnc1)CC2 on 5-hydroxytryptamine receptor 2A (Homo sapiens) was 2510

So the reported Ki for NC1CCc2ccc(CCN3CCN(c4nsc5ccccc45)CC3)cc21 (stereo unspecified) , on 5-hydroxytryptamine receptor 2A (Homo sapiens), turned out to be 0.09

COc1cccc(N2CCN(CCCCOc3c(C(C)=O)c(C)cc4oc(=O)cc(C)c34)CC2)c1 on 5-hydroxytryptamine receptor 2A (Homo sapiens) gives Ki = 520

----------
For reference, the following pKi results for 5-hydroxytryptamine receptor 2A (Homo sapiens) were taken from various sources.
# reply with the number alone; pKi is -log10 of concentration in mol/L

Look over these answered cases.
INSERT INTO assay_data (cpd_smiles, number) VALUES
  ('COc1ccc(N2Cc3c(c4ccc(Cl)cc4n3C)C2=O)cc1OCCN1CCCCC1', 6.50),
  ('COc1c(O)ccc2c1CN1CCc3cc4c(cc3[C@@H]1C2)OCCO4', 6.44);

We now examine a further compound.
// pKi lookup, compound = CCc1cc2c(cc1Cl)N(C(=O)Nc1cccnc1)CC2 , result: 6.40

----------
Here, compounds appear alongside Ki reported for 5-hydroxytryptamine receptor 2A (Homo sapiens) in the literature.
Value expressed in nM; do not type the unit.

INSERT INTO results (compound, outcome_measure, number) VALUES
  ('O=S(=O)(NC1CCN(CC(O)COc2ccccc2-c2ccccc2)CC1)c1cccc(Cl)c1 (stereo unspecified)', 'Ki', 2110),
  ('O=C(NC/C=C/CN1CCN(c2cccc(Cl)c2Cl)CC1)c1ccc(-c2cccc[n+]2[O-])cc1', 'Ki', 57.9),
  ('Nc1cc(F)ccc1C(=O)CCCN1CC[C@H]2[C@@H](C1)c1cccc3c1N2CCO3', 'Ki', 0.2),
  ('O=C1NCc2ccc(OCCCCN3CCN(c4cccc5cc(F)ccc45)CC3)c(F)c21', 'Ki', 3.07),
  ('Cc1cc2c(cc1C(F)(F)F)N(C(=O)Nc1ccc(OCc3ccccn3)nn1)CC2', 'Ki', 251),
  ('Cc1c(Cl)cccc1N1CCN(CCCCOc2ccc3c(n2)NC(=O)CC3)CC1', 'Ki', 1.5),
  ('CCN1CCc2cc3ccccc3n2CC1', 'Ki', 30),
  ('Cc1c(OCCCCN2CCN(c3cccc4cccc(F)c34)CC2)ccc2c1C(=O)NC2', 'Ki', 3.85),
  ('COc1cccc(N2CCN(CCCOc3c(C(C)=O)c(C)cc4oc(=O)cc(C)c34)CC2)c1', 'Ki', 48),
  ('CC(Oc1cc(F)ccc1C(F)(F)F)c1nc(N)nc(N2CCN(C)CC2)n1 (stereo unspecified)', 'Ki', 629);

Now turn to the next compound.
Measured Ki (5-hydroxytryptamine receptor 2A (Homo sapiens)), entry Cc1c(Br)c(C(=O)N2CCN(CC(=O)c3ccc(F)cc3)CC2)nn1C : 4.6

----------
Literature pKi values, system: UniProt:P28223.
pKi field: float, defined as -log10 of concentration (mol/L).

A selection of reference data follows.
INSERT INTO assay_data (cpd_smiles, number) VALUES
  ('COc1ccccc1N1CCN(CCCCNC(=O)c2ccc(-c3ccccn3)cc2)CC1', 6.64),
  ('COc1ccc(NS(=O)(=O)c2sc3ccc(Cl)cc3c2C)cc1N1CCNCC1', 5.76),
  ('Cc1cc(OCCCN2CCC(c3noc4cc(F)ccc34)CC2)ccc1CN1CCCC1', 7.94);

Reported pKi ( O=C1CCc2ccc(OCCCCN3CCN(c4ccccc4Cl)CC3)nc2N1 ) = 7.80

The recorded pKi for O=Cc1cnn2ccc(-n3cc(CCCCN4CCN(c5cccc(Cl)c5Cl)CC4)nn3)cc12 is 7.82

// pKi value for Cc1cccc(N2CCN(CCCCNC(=O)c3ccccn3)CC2)n1 : 6.62
